Attribution: patent US20100076015A1

assay-system: Human KLK1 (Homo sapiens)
Sequence (P06870 25-262): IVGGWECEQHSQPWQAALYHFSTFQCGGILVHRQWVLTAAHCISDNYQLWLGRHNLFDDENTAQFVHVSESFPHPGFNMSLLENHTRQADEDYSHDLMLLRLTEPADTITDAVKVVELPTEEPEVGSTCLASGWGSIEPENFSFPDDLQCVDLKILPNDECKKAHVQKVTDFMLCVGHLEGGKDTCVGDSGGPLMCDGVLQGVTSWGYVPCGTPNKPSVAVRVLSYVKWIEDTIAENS
pIC50: −log10 of the molar value.
Each entry gets condition not met if its pIC50 stays under 8, and condition met if its pIC50 is 8 or above.

| compound | label-value |
| --- | --- |
| Cc1nc(N)ccc1CNC(=O)[C@H](Cc1ccc(Cl)c(Cl)c1)NC(=O)[C@H](N)C(C)(C)C | condition met |
| Cc1nc(N)ccc1CNC(=O)[C@H](Cc1ccc(F)c(F)c1)NC(=O)CN1CCCCC1 | condition not met |
| Cc1nc(N)ccc1CNC(=O)[C@@H](Cc1ccc(Cl)c(Cl)c1)NC(=O)[C@@H](N)c1ccccc1 | condition not met |
| CN1CCC[C@@H]1C(=O)N[C@@H](CC1CCCCC1)C(=O)NCc1ccc(N)nc1 | condition not met |
| CCCN(C)[C@@H](C)C(=O)N[C@@H](Cc1ccc(F)cc1)C(=O)NCc1ccc(N)nc1 | condition not met |
| CCC(C)[C@@H](N)C(=O)N[C@@H](Cc1ccccc1)C(=O)NCc1ccc(N)nc1 (some centres unmarked) | condition not met |

* * *

assay-system: Human KLK1 (Homo sapiens)
Construct: purchased Callbiochem (Calbiochem)
experiment-notes: Determination of the IC50 for KLK1 (fluorogenic substrate H-DVal-Leu-Arg-AFC)
Format: biochemical
condition-notes: 37° C.
The following compounds are listed with their measured log10(IC50) values.
property: log10(IC50) (log10 of the value in nM)

| compound | assay-system | quantitative-result |
| --- | --- | --- |
| Cc1ccc(-c2ccc(C(=O)N[C@@H](Cc3cccc(Cl)c3)C(=O)NCc3ccc(N)nc3)[nH]2)cc1 [Example 297] | Human KLK1 (Homo sapiens) | 1.60 |
| CC(C)C[C@@H](N)C(=O)N[C@@H](CC1CCCC2CCCCC21)C(=O)NCc1ccc(N)nc1 (some centres unmarked) [Example 16] | Human KLK1 (Homo sapiens) | 0.04 |
| CN1CCC[C@@H]1C(=O)N[C@@H](Cc1ccc(C(C)(C)C)cc1)C(=O)NCc1ccc(N)nc1 [Example 102] | Human KLK1 (Homo sapiens) | 2.41 |
| Cc1cc(C)c(C(=O)N[C@@H](Cc2csc3ccccc23)C(=O)NCc2ccc(N)nc2)[nH]1 [Example 250] | Human KLK1 (Homo sapiens) | -0.10 |
| CCN(C)[C@@H](C)C(=O)N[C@@H](CC1CCCCC1)C(=O)NCc1ccc(N)nc1 [Example 384] | Human KLK1 (Homo sapiens) | 0.99 |
| Cn1ccnc1C(=O)N[C@@H](Cc1ccc(F)cc1)C(=O)NCc1ccc(N)nc1 [Example 290] | Human KLK1 (Homo sapiens) | 2.80 |
| CN(C)CC(=O)N[C@@H](Cc1ccc(Cl)c(Cl)c1)C(=O)NCc1ccc(N)nc1 [Example 153] | Human KLK1 (Homo sapiens) | 1.84 |
| CCN(C)[C@@H](C)C(=O)N[C@@H](Cc1ccc(F)cc1)C(=O)NCc1ccc(N)nc1 [Example 367] | Human KLK1 (Homo sapiens) | 1.03 |

* * *

assay-system: Human KLK1 (Homo sapiens)

| compound | IC50 (nM) |
| --- | --- |
| CCN(C)[C@@H](C)C(=O)N[C@@H](Cc1ccc(F)c(F)c1)C(=O)NCc1ccc(N)nc1 [Example 345] | 7.7 |
| Nc1ccc(CNC(=O)[C@H](Cc2ccc(F)c(F)c2)NC(=O)c2cc3cc(F)ccc3[nH]2)cn1 [Example 326] | 25.4 |
| CCCN(CCC)CC(=O)N[C@@H](Cc1ccc(F)c(F)c1)C(=O)NCc1ccc(N)nc1 [Example 158] | 114 |
| Cc1cc(C)c(C(=O)N[C@@H](Cc2ccccc2)C(=O)NCc2ccc(N)nc2)[nH]1 [Example 237] | 10.9 |
| CCCCN(C)CC(=O)N[C@@H](Cc1ccc(F)c(F)c1)C(=O)NCc1ccc(N)nc1 [Example 167] | 258 |
| Nc1ccc(CNC(=O)[C@H](Cc2ccc(Cl)c(Cl)c2)NC(=O)[C@@H](N)c2ccccc2)cn1 [Example 58] | 48.6 |
| Nc1ccc(CNC(=O)[C@H](Cc2c(F)c(F)c(F)c(F)c2F)NC(=O)c2cc3ccccc3[nH]2)cn1 [Example 329] | 299 |
| CCN(CC)[C@@H](CO)C(=O)N[C@@H](CC1CCCCC1)C(=O)NCc1ccc(N)nc1 [Example 389] | 42.9 |
| CC(C)N(C)[C@@H](CO)C(=O)N[C@@H](CC1CCCCC1)C(=O)NCc1ccc(N)nc1 [Example 388] | 22.2 |
| Nc1ccc(CNC(=O)[C@H](Cc2ccc(F)cc2)NC(=O)[C@H]2CCCCN2)cn1 [Example 73] | 1.1 |
| Cc1cccc(C[C@H](NC(=O)c2[nH]c(C)cc2C)C(=O)NCc2ccc(N)nc2)c1 [Example 234] | 3.2 |
| Nc1ccc(CNC(=O)[C@H](Cc2cccc(F)c2)NC(=O)c2cc3ccccc3[nH]2)cn1 [Example 311] | 46.5 |
| Cc1ccc(-c2ccc(C(=O)N[C@@H](Cc3cccc4ccccc34)C(=O)NCc3ccc(N)nc3)[nH]2)cc1 [Example 292] | 31.5 |
| Nc1ccc(CNC(=O)[C@H](Cc2cccc(Cl)c2)NC(=O)CN2CCCCC2)cn1 [Example 412] | 9.3 |
| CCC(C)[C@H](C(=O)N[C@@H](Cc1ccc(Cl)c(Cl)c1)C(=O)NCc1ccc(N)nc1)N(C)S(C)(=O)=O (stereo partly drawn) [Example 8] | 1.7 |
